# SYSTEM: human Caspase 5 (CASP5), CASP5 (gene 838) (UniProt P51878)
# Sequence (P51878 whole entry, looked up): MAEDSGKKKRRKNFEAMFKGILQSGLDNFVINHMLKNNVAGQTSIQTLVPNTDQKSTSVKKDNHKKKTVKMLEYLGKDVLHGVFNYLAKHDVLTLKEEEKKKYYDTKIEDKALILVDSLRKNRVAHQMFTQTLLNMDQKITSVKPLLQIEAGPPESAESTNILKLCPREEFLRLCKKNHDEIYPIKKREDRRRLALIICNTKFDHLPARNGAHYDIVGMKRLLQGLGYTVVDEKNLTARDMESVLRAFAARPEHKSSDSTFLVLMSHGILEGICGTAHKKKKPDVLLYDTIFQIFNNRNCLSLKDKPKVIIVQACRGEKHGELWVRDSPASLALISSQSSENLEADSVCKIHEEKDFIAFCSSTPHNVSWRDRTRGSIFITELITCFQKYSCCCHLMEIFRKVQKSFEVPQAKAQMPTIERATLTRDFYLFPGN
# TEST_METHOD_NOTES: NVS_ENZ_hCASP5: NovaScreen (NVS) Enzymatic Assay for human Caspase 5 (CASP5) (AID 2283137)
Records with an inconclusive call do not appear. The source made the active and inactive calls. Rule for the calls: active = hit-call score of the fitted dose curve at least 0.9, where 1 is the maximum; inconclusive = response in the unintended direction; inactive = score below 0.9.
Classes used: T = active, F = inactive

MOLECULE | CLASS_LABEL
c1ccc2c(c1)ccc1cc3c(ccc4ccccc43)cc12 | T
C=CCOCC(O)CCl (centres undefined) | F
N#[N+]c1ccc2c(S(=O)(=O)[O-])cccc2c1O | T
CCCCC/C=C\C/C=C\CCCCCCCC(=O)OC | T
